Target: T1, Anti-CD28 Fab (SEQ ID NOs: 696, 697)
T1 construct: Biotinylated and captured on neutravidin coated plates in the phage ELISA
T1 sequence (VH, as listed by the source, chain 1 of 2): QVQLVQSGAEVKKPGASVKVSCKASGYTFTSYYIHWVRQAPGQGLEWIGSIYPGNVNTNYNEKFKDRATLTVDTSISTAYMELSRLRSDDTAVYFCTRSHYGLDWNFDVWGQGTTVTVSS
T1 sequence (VL, as listed by the source, chain 2 of 2): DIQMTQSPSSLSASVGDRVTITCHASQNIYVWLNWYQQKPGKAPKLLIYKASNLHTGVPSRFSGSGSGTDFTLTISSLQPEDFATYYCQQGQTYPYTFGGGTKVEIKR
Test: phage ELISA on captured anti-CD28 Fab; competitor CD28 antigen pre-incubated in the wells;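 note: clonal phage supernatants added to wells preloaded with CD28 antigen in blocking buffer, control wells buffer only, bound phage read via HRP-linked anti-M13 antibody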
readout-type: Phage binding ELISA, Anti-CD28 Fab signal in the presence of CD28
API note: the answer field is a bare number with no unit suffix.

binder: YCAGHLPQYMSKCL (tested as crude clonal phage supernatant) [Phage-524]
recorded-measurement: 0.11
--
binder: YCEGHLPEYMWKCL (tested as crude clonal phage supernatant) [Phage-514]
recorded-measurement: 0.08
--
binder: YCAGHMPEYMAKCL (tested as crude clonal phage supernatant) [Phage-517]
recorded-measurement: 0.11
--
binder: YCMGHAPEYMAKCL (tested as crude clonal phage supernatant) [Phage-520]
recorded-measurement: 0.09
--
binder: YCDGHAPEYMMKCL (tested as crude clonal phage supernatant) [Phage-513]
recorded-measurement: 0.09

binder YCDGHLPEYLAKCL (tested as crude clonal phage supernatant) [Phage-516] , Phage binding ELISA, Anti-CD28 Fab signal in the presence of CD28 observed: 0.11

binder YCEGHTAEYMQKCL (tested as crude clonal phage supernatant) [Phage-519] , Phage binding ELISA, Anti-CD28 Fab signal in the presence of CD28 observed: 0.08

binder YCDGHLPEYQEKCL (tested as crude clonal phage supernatant) [Phage-523] , Phage binding ELISA, Anti-CD28 Fab signal in the presence of CD28 observed: 0.1

binder YCDGHLPIYMSQCL (tested as crude clonal phage supernatant) [Phage-525] , Phage binding ELISA, Anti-CD28 Fab signal in the presence of CD28 observed: 0.12
